Below is a list of entries, each paired with its recorded growth value.
test system: COLO 205 colon; assay: NCI-60 one-dose screen, 48 h (100 = growth as untreated, 0 = no growth, -100 = all killed); settings: 10 µM unless noted
The panel holds about 83,000 compounds, 20% with a hit somewhere; the sample as a whole holds those more often.
outcome_measure: growth (%)

1. CCCCCCC(C)N(CC(C)(C)O)C(=O)c1ccc([N+](=O)[O-])cc1 (centres undefined)	99.6
2. COc1ccc2nc3cc(Cl)ccc3c(NCCCNC(C)=O)c2c1	23.7
3. NCCCOc1cc2ccccc2cc1C(=O)Nc1ccc(Cl)cc1OC(=O)c1cc2ccccc2cc1OCCCN	-90.8
4. CCCOC(=O)c1c(C)n(C)c2scc[n+]12	84.9
